# Measurement Target: Alkaline phosphatase, placental type (Homo sapiens) (UniProt P05187)
# Sequence (P05187 whole entry, looked up): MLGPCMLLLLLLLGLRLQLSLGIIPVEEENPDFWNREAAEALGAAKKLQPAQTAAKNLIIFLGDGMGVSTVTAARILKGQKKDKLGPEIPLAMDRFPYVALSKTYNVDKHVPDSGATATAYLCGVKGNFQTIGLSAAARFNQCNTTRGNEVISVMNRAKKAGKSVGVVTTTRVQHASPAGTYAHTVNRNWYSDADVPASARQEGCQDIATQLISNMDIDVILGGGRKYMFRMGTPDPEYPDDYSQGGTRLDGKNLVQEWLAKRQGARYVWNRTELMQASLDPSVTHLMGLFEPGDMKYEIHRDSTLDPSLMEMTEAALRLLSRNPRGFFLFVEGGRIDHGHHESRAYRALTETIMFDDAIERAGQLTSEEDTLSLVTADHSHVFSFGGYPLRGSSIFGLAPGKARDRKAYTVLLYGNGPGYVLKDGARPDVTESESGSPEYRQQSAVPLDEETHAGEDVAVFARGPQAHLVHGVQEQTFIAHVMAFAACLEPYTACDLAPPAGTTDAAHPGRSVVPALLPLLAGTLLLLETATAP
# Assay Summary: PLAP enzyme inhibitors, biochemical, luminescence, HTS (AID 690)
# Assay Conditions: purified PLAP, luminescent substrate; at 20 µM; active compounds read high
The campaign covered roughly 96,000 compounds. About 80 (0.08%) were called active. These entries were drawn from the full list. Results with a measured potency or affinity are listed apart.
Quantity: inhibition (%)
Give the value, in units of %, as a plain number.

**Query** I'd like to know its inhibition. The molecule in question is O=C(NCc1cccnc1)NC1(C(F)(F)F)Oc2ccccc2O1
**Result** 12.3

**Query** I'd like to know its inhibition. The molecule in question is COCC(C)NC(=O)NC1(C(F)(F)F)Oc2ccc(Cl)cc2O1 (stereo unspecified)
**Result** 34.9

**Query** I'd like to know its inhibition. The molecule in question is CC(NC(=O)NCc1cccnc1)(C(F)(F)F)C(F)(F)F
**Result** -6.1

**Query** I'd like to know its inhibition. The molecule in question is COc1ccc(/C=C2\N=C3CCCCCN3C2=O)cc1OC
**Result** -6.1

**Query** I'd like to know its inhibition. The molecule in question is CCCCNC(=O)NC1(C(F)(F)F)Oc2ccccc2O1
**Result** -12

**Query** I'd like to know its inhibition. The molecule in question is COc1ccc(C(=O)O/N=C(\C)c2ccccc2)cc1
**Result** 2.4

**Query** I'd like to know its inhibition. The molecule in question is COCc1[nH]nc2c1C(c1ccc(OC)c(OC)c1)C(C#N)=C(N)O2 (stereo unspecified)
**Result** -0.8

**Query** I'd like to know its inhibition. The molecule in question is Cc1nn(CC(O)Cn2cnc3c2c(=O)n(C)c(=O)n3C)c(C)c1Br (stereo unspecified)
**Result** -1.6

**Query** I'd like to know its inhibition. The molecule in question is O=C(C1CC1)N1CCN=C1SCc1cccc(C(F)(F)F)c1
**Result** 3

**Query** I'd like to know its inhibition. The molecule in question is COc1cccc(/C=C2\N=C3CCCCCN3C2=O)c1
**Result** 2.1

**Query** I'd like to know its inhibition. The molecule in question is CCCc1[nH]nc2c1C(c1cc(OC)cc(OC)c1)C(C#N)=C(N)O2 (stereo unspecified)
**Result** -45.4

These entries and their values trace back to PubChem BioAssay AID690.
